- system: Bifunctional epoxide hydrolase 2 (Homo sapiens, UniProt P34913)
- Sequence (P34913 whole entry): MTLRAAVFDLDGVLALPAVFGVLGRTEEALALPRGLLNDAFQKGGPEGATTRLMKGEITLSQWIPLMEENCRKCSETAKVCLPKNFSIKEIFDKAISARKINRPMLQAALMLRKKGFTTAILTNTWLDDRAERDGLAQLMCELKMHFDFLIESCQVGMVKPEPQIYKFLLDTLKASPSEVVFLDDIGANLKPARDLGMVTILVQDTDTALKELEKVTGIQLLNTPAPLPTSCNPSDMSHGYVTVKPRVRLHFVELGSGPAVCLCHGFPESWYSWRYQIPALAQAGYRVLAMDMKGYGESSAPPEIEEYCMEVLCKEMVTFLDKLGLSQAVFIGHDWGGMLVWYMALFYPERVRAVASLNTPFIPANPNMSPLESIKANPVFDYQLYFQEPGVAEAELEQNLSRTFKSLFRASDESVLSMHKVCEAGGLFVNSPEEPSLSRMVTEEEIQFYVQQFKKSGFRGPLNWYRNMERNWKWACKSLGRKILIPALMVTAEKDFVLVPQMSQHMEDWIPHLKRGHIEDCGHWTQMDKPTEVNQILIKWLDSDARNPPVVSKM
- method: Inhibition of human recombinant soluble epoxide hydrolase assessed as cyano(6-methoxy-naphthalen-2-yl)methyl trans-[(3-phenyloxyran-2-yl)methyl] carbonate conversion to 6-methoxy-2-naphthaldehyde preincubated for 5 mins prior to substrate addition by fluorescence assay
value_type: IC50 (nM)
Your answer is read as nM, so omit the unit and give the number.

compound_smiles=CN(C)C(=O)c1cc(O[C@H]2CC[C@H](NC(=O)Nc3ccc(Cl)c(C(F)(F)F)c3)CC2)ccn1 numeric_value=0.5
compound_smiles=CNC(=O)c1cccc(O[C@H]2CC[C@H](NC(=O)Nc3ccc(Cl)c(C(F)(F)F)c3)CC2)c1 numeric_value=1
compound_smiles=O=C(Nc1ccc(Cl)c(C(F)(F)F)c1)N[C@H]1CC[C@H](Oc2cccc(C(=O)O)c2)CC1 numeric_value=8.6

// assay Bifunctional epoxide hydrolase 2 (Homo sapiens, UniProt P34913), entry CNC(=O)c1cc(Oc2ccc(NC(=O)Nc3ccc(Cl)c(C(F)(F)F)c3)c(F)c2)ccn1 , IC50 value = 0.5

// assay Bifunctional epoxide hydrolase 2 (Homo sapiens, UniProt P34913), entry O=C(Nc1ccc(Cl)c(C(F)(F)F)c1)N[C@H]1CC[C@H](Oc2ccc(C(=O)O)cc2)CC1 , IC50 value = 0.5

----------
Catalogue of pIC50 values
- system: RAF proto-oncogene serine/threonine-protein kinase (Homo sapiens)
- Sequence (P04049 whole entry): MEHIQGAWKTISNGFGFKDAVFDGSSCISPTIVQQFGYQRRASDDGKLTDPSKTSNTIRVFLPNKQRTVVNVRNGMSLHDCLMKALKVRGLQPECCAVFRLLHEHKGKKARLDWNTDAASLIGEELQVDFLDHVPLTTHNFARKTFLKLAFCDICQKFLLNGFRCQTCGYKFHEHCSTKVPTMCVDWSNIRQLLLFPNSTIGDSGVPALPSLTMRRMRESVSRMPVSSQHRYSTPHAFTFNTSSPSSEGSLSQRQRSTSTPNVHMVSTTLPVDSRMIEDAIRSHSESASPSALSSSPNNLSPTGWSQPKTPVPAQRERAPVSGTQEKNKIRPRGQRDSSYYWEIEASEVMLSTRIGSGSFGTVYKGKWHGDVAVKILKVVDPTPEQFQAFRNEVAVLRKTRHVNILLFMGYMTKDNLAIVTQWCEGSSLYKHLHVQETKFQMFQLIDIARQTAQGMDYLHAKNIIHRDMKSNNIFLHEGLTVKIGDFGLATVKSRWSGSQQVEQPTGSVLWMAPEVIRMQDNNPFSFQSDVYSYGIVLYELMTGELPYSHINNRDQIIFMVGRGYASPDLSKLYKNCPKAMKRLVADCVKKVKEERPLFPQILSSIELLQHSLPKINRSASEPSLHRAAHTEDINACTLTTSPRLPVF
- method: Inhibition of full length recombinant c-RAF (unknown origin) using MEK1 as substrate after 1 hr by luminescence assay
pIC50: −log10 of the molar value.

compound_smiles=O=C(Nc1ccc(Cl)c(C(F)(F)F)c1)N[C@H]1CC[C@H](Oc2cccc(C(=O)O)c2)CC1 result="< 5.00"
compound_smiles=O=C(Nc1ccc(Cl)c(C(F)(F)F)c1)N[C@H]1CC[C@H](Oc2ccc(C(=O)O)cc2)CC1 result=5.37
compound_smiles=CNC(=O)c1ccc(O[C@H]2CC[C@H](NC(=O)NC34CC5CC(CC(C5)C3)C4)CC2)cc1 result="< 5.00"

Quick note, pIC50 for CS(=O)(=O)N1CCC(NC(=O)Nc2ccc(OC(F)(F)F)cc2)CC1 landed at < 5.00

----------
- System: Huh-7
- method: Cytotoxicity against human HuH7 cells by MTT assay
- condition_notes: Homo sapiens, Huh-7
Catalogue of GI50 values

Below, 2 molecules whose answers are already recorded.
compound_smiles=CS(=O)(=O)N1CCC(NC(=O)Nc2ccc(OC(F)(F)F)cc2)CC1 value_type=GI50 result="> 25 µM"
compound_smiles=CNC(=O)c1cc(Oc2ccc(NC(=O)Nc3ccc(OC(F)(F)F)cc3)cc2)ccn1 value_type=GI50 result="7 µM"

Quick note, GI50 for CNC(=O)c1ccc(O[C@H]2CC[C@H](NC(=O)NC34CC5CC(CC(C5)C3)C4)CC2)cc1 landed at 5.5 µM

Quick note, GI50 for CNC(=O)c1cc(O[C@H]2CC[C@@H](NC(=O)Nc3ccc(Cl)c(C(F)(F)F)c3)CC2)ccn1 landed at 8.5 µM

Quick note, GI50 for CNC(=O)c1ccc(O[C@H]2CC[C@H](NC(=O)Nc3ccc(Cl)c(C(F)(F)F)c3)CC2)cn1 landed at 8 µM

Quick note, GI50 for O=C(Nc1ccc(Cl)c(C(F)(F)F)c1)N[C@H]1CC[C@H](Oc2cccc(C(=O)O)c2)CC1 landed at > 25 µM

Quick note, GI50 for CN(C)C(=O)c1cc(O[C@H]2CC[C@H](NC(=O)Nc3ccc(Cl)c(C(F)(F)F)c3)CC2)ccn1 landed at 8 µM

Quick note, GI50 for CNC(=O)c1ccc(O[C@H]2CC[C@H](NC(=O)Nc3ccc(OC(F)(F)F)cc3)CC2)cc1 landed at 5.5 µM

Quick note, GI50 for O=C(Nc1ccc(Cl)c(C(F)(F)F)c1)N[C@H]1CC[C@H](Oc2ccc(C(=O)O)cc2)CC1 landed at > 25 µM

Quick note, GI50 for CNC(=O)c1ccc(O[C@H]2CC[C@H](NC(=O)Nc3ccc(Cl)c(C(F)(F)F)c3)CC2)cc1 landed at 16 µM

Quick note, GI50 for CNC(=O)c1cc(O[C@H]2CC[C@H](NC(=O)Nc3ccc(Cl)c(C(F)(F)F)c3)CC2)ccn1 landed at 8 µM
